Would you mind telling me the reported viability, T/C of each entry?
# Tested on: 873145-292-R-J1-PDC complex spheroid viability
# Method Summary: Anticancer human tumor 873145-292-R-J1-PDC patient-derived renal clear cell carcinoma cell line growth inhibition [POLQ]
# Test Settings: second compound 0.316 µM; first compound 0.00316 µM; stronger effect = lower value
Give bare numbers, in %.

Solved cases (6 shown):
>  <Compound>
C=CCn1c(=O)c2cnc(Nc3ccc(N4CCN(C)CC4)cc3)nc2n1-c1cccc(C(C)(C)O)n1 + COC1C(OC(N)=O)C(O)C(Oc2ccc3c(O)c(NC(=O)c4ccc(O)c(CC=C(C)C)c4)c(=O)oc3c2C)OC1(C)C

>  <Experimental System>
873145-292-R-J1-PDC complex spheroid viability

>  <viability, T/C / %>
100

$$$$
>  <Compound>
C=CCn1c(=O)c2cnc(Nc3ccc(N4CCN(C)CC4)cc3)nc2n1-c1cccc(C(C)(C)O)n1 + Cc1cccc(N(C)C(=O)C2C(O)CCN2c2nc(C)cc(C(F)(F)F)c2C#N)c1

>  <Experimental System>
873145-292-R-J1-PDC complex spheroid viability

>  <viability, T/C / %>
101

$$$$
>  <Compound>
CCc1c2c(nc3ccc(O)cc13)-c1cc3c(c(=O)n1C2)COC(=O)[C@]3(O)CC + Cc1cccc(N(C)C(=O)C2C(O)CCN2c2nc(C)cc(C(F)(F)F)c2C#N)c1

>  <Experimental System>
873145-292-R-J1-PDC complex spheroid viability

>  <viability, T/C / %>
107

$$$$
>  <Compound>
COc1cccc(OCCCN)c1-c1cc(Nc2cnc(C#N)cn2)n[nH]1 + Nc1ccc(C#CCN(C(=O)Cc2ncc(C(F)(F)F)cc2C(F)(F)F)c2ccc(F)cc2)nn1

>  <Experimental System>
873145-292-R-J1-PDC complex spheroid viability

>  <viability, T/C / %>
95.5

$$$$
>  <Compound>
Cn1ncnc1[C@H]1c2n[nH]c(=O)c3cc(F)cc(c23)N[C@@H]1c1ccc(F)cc1 + Nc1ccc(C#CCN(C(=O)Cc2ncc(C(F)(F)F)cc2C(F)(F)F)c2ccc(F)cc2)nn1

>  <Experimental System>
873145-292-R-J1-PDC complex spheroid viability

>  <viability, T/C / %>
99.2

$$$$
>  <Compound>
Cn1ncnc1[C@H]1c2n[nH]c(=O)c3cc(F)cc(c23)N[C@@H]1c1ccc(F)cc1 + Cc1cccc(N(C)C(=O)C2C(O)CCN2c2nc(C)cc(C(F)(F)F)c2C#N)c1

>  <Experimental System>
873145-292-R-J1-PDC complex spheroid viability

>  <viability, T/C / %>
87.6

$$$$

Give viability, T/C for all compounds that follow.
1. Cn1ncnc1[C@H]1c2n[nH]c(=O)c3cc(F)cc(c23)N[C@@H]1c1ccc(F)cc1 + COC1C(OC(N)=O)C(O)C(Oc2ccc3c(O)c(NC(=O)c4ccc(O)c(CC=C(C)C)c4)c(=O)oc3c2C)OC1(C)C
2. CCc1c2c(nc3ccc(O)cc13)-c1cc3c(c(=O)n1C2)COC(=O)[C@]3(O)CC + Nc1ccc(C#CCN(C(=O)Cc2ncc(C(F)(F)F)cc2C(F)(F)F)c2ccc(F)cc2)nn1

102
114

----------
Kindly supply the reported IC50 values for the records listed here.
# Tested on: 873145-292-R-J1-PDC complex spheroid viability
# Method Summary: Anticancer human tumor 873145-292-R-J1-PDC cell line growth inhibition [POLQ];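 note: spheroids exposed to compounds for 7 days before viability readout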
# Test Settings: curve of first compound; second compound 10 µM

Examples with their reported IC50 follow.
>  <Compound>
C=CCn1c(=O)c2cnc(Nc3ccc(N4CCN(C)CC4)cc3)nc2n1-c1cccc(C(C)(C)O)n1 + Cc1cccc(N(C)C(=O)C2C(O)CCN2c2nc(C)cc(C(F)(F)F)c2C#N)c1

>  <IC50>
> 1 µM

$$$$
>  <Compound>
CCCS(=O)(=O)Nc1ccc(F)c(C(=O)c2c[nH]c3ncc(-c4ccc(Cl)cc4)cc23)c1F + Nc1ccc(C#CCN(C(=O)Cc2ncc(C(F)(F)F)cc2C(F)(F)F)c2ccc(F)cc2)nn1

>  <IC50>
> 10 µM

$$$$
>  <Compound>
COc1cccc2c1C(=O)c1c(O)c3c(c(O)c1C2=O)CC(O)(C(=O)CO)CC3OC1CC(N)C(O)C(C)O1 (stereo not given) + Nc1ccc(C#CCN(C(=O)Cc2ncc(C(F)(F)F)cc2C(F)(F)F)c2ccc(F)cc2)nn1

>  <IC50>
0.877 µM

$$$$
>  <Compound>
O=C(Nc1ccc(O)c(NS(=O)(=O)c2ccc(F)cc2)c1)c1ccc(-c2ccccc2)cc1 + Nc1ccc(C#CCN(C(=O)Cc2ncc(C(F)(F)F)cc2C(F)(F)F)c2ccc(F)cc2)nn1

>  <IC50>
> 10 µM

$$$$
>  <Compound>
C#Cc1c(F)ccc2cc(O)cc(-c3ncc4c(N5CC6CCC(C5)N6)nc(OCC56CCCN5CC(F)C6)nc4c3F)c12 (stereo not given) + Cc1cccc(N(C)C(=O)C2C(O)CCN2c2nc(C)cc(C(F)(F)F)c2C#N)c1

>  <IC50>
> 10 µM

$$$$
>  <Compound>
COc1cc2cc(C(=O)CCC(=O)O)sc2cc1OC + Cc1cccc(N(C)C(=O)C2C(O)CCN2c2nc(C)cc(C(F)(F)F)c2C#N)c1

>  <IC50>
> 10 µM

$$$$
>  <Compound>
CCc1c2c(nc3ccc(O)cc13)-c1cc3c(c(=O)n1C2)COC(=O)[C@]3(O)CC + Cc1cccc(N(C)C(=O)C2C(O)CCN2c2nc(C)cc(C(F)(F)F)c2C#N)c1

>  <IC50>
0.0744 µM

$$$$
>  <Compound>
COc1ccc([C@@H](O)c2cc(-c3ncnc4cc(N5CCOCC5)ccc34)c(F)cc2Cl)nn1 + Nc1ccc(C#CCN(C(=O)Cc2ncc(C(F)(F)F)cc2C(F)(F)F)c2ccc(F)cc2)nn1

>  <IC50>
> 10 µM

$$$$

Batch lookup, IC50 per entry.
1. COc1cccc2c1C(=O)c1c(O)c3c(c(O)c1C2=O)CC(O)(C(=O)CO)CC3OC1CC(N)C(O)C(C)O1 (stereo not given) + Cc1cccc(N(C)C(=O)C2C(O)CCN2c2nc(C)cc(C(F)(F)F)c2C#N)c1
2. C=CCn1c(=O)c2cnc(Nc3ccc(N4CCN(C)CC4)cc3)nc2n1-c1cccc(C(C)(C)O)n1 + Nc1ccc(C#CCN(C(=O)Cc2ncc(C(F)(F)F)cc2C(F)(F)F)c2ccc(F)cc2)nn1

0.636 µM
> 1 µM

----------
# System: 873145-292-R-J1-PDC complex spheroid viability
# Method Summary: Anticancer human tumor 873145-292-R-J1-PDC cell line growth inhibition [POLQ];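 note: spheroids exposed to compounds for 7 days before viability readout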;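 for viability, T/C: luminescence signal used as surrogate for viable cell content; 100% = DMSO vehicle control viability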
# Test Settings: second compound 0.0316 µM; first compound 0.1 µM; stronger effect = lower value
Readout Kind: viability, T/C

Observe how each entry below is paired with its result.
>  <Compound>
O=C(Nc1ccc(O)c(NS(=O)(=O)c2ccc(F)cc2)c1)c1ccc(-c2ccccc2)cc1 + Nc1ccc(C#CCN(C(=O)Cc2ncc(C(F)(F)F)cc2C(F)(F)F)c2ccc(F)cc2)nn1

>  <Result>
112%

$$$$
>  <Compound>
CC1COCCN1c1cc(C2(S(C)(=N)=O)CC2)nc(-c2ccnc3[nH]ccc23)n1 (stereo not drawn) + Cc1cccc(N(C)C(=O)C2C(O)CCN2c2nc(C)cc(C(F)(F)F)c2C#N)c1

>  <Result>
102%

$$$$
>  <Compound>
O=C(Nc1ccc(O)c(NS(=O)(=O)c2ccc(F)cc2)c1)c1ccc(-c2ccccc2)cc1 + Cc1cccc(N(C)C(=O)C2C(O)CCN2c2nc(C)cc(C(F)(F)F)c2C#N)c1

>  <Result>
98.5%

$$$$
>  <Compound>
O=C(c1cc(Cc2n[nH]c(=O)c3ccccc23)ccc1F)N1CCN(C(=O)C2CC2)CC1 + Cc1cccc(N(C)C(=O)C2C(O)CCN2c2nc(C)cc(C(F)(F)F)c2C#N)c1

>  <Result>
110%

$$$$
>  <Compound>
CCc1cc2c(N3CCc4c(cc(Cn5ccnc5)cc4-c4cn(C)nc4C(F)(F)F)C3=O)ccnc2c(OC)n1 + Cc1cccc(N(C)C(=O)C2C(O)CCN2c2nc(C)cc(C(F)(F)F)c2C#N)c1

>  <Result>
114%

$$$$
>  <Compound>
COc1cc(C2c3cc4c(cc3C(OC3OC5COC(C)OC5C(O)C3O)C3COC(=O)C23)OCO4)cc(OC)c1O (stereo not drawn) + Cc1cccc(N(C)C(=O)C2C(O)CCN2c2nc(C)cc(C(F)(F)F)c2C#N)c1

>  <Result>
98.3%

$$$$

Dear colleague, could you please provide viability, T/C for the compounds listed below?
1. COc1cc(C2c3cc4c(cc3C(OC3OC5COC(C)OC5C(O)C3O)C3COC(=O)C23)OCO4)cc(OC)c1O (stereo not drawn) + Nc1ccc(C#CCN(C(=O)Cc2ncc(C(F)(F)F)cc2C(F)(F)F)c2ccc(F)cc2)nn1
2. C=CCn1c(=O)c2cnc(Nc3ccc(N4CCN(C)CC4)cc3)nc2n1-c1cccc(C(C)(C)O)n1 + COC1C(OC(N)=O)C(O)C(Oc2ccc3c(O)c(NC(=O)c4ccc(O)c(CC=C(C)C)c4)c(=O)oc3c2C)OC1(C)C

104%
85.5%
